The reported measurements were obtained from patent US10710986B2.

- TARGET_OF_ASSAY: PD-1/PD-L1 (Homo sapiens (Human), UniProt Q9NZQ7)
- Sequence (Q9NZQ7 19-238): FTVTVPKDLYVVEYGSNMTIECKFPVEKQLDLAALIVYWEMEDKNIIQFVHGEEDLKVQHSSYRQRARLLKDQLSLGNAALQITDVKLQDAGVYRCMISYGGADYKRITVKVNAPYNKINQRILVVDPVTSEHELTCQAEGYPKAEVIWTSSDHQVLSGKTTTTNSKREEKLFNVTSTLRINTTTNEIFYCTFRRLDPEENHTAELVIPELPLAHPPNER
- MEASUREMENT_NOTES: PD-1/PD-L1 biochemical protein-protein interaction assay (ALPHA)
- CONDITION_LABEL: 0.3 nM His tagged PD-L1, 2.5 nM biotinylated Fc-PD-1, 60 minutes at 25° C., read-out: IC50 PD-L1-PD1
METRIC: log10 IC50 (log10 of the value in nM)
Scale: log10; quantity: IC50; unit before log: nM

MOLECULE	NUMERIC_VALUE
COc1nc(-c2cccc(-c3cccc(-c4cc(C)c(CNC[C@H]5C[C@H](O)C5)c(OC)n4)c3Cl)c2Cl)cnc1CNC[C@@H]1CCC(=O)N1 [compound 652]	-0.92
COc1nc(-c2cccc(-c3cccc(-c4cnc(CN5CC[C@H](CO)C5)c(OC)n4)c3Cl)c2Cl)cnc1CN1CC[C@H](CO)C1 [compound 624]	-0.82
COc1nc(-c2cccc(-c3cccc(-c4cnc(CNC[C@@H]5CCC(=O)N5)c(OC)n4)c3Cl)c2Cl)cnc1CNCCC1CNC(=O)C1 (stereo partly drawn) [compound 235]	-0.97

List the reported log10 IC50 of each molecule below.
1. COc1nc(-c2cccc(-c3cccc(-c4cnc(CN5CCC6(CCC(=O)N6)CC5)c(OC)n4)c3Cl)c2Cl)cnc1CNC[C@H]1CCC(=O)N1 [compound 203]
2. COc1nc(-c2cccc(-c3cccc(-c4cnc(C5=NCCN5)c(OC)n4)c3Cl)c2Cl)ccc1CN1CC(C)(O)C1 [compound 642]
3. COc1nc(-c2cccc(-c3cccc(-c4cnc(CN5CC[C@H](O)[C@@H](F)C5)c(OC)n4)c3Cl)c2Cl)cnc1CNC[C@@H]1CCC(=O)N1 [compound 277]

1: -0.89; 2: -1.19; 3: -0.19

* * *

- TARGET_OF_ASSAY: PD-1/PD-L1 (Homo sapiens (Human))
- MEASUREMENT_NOTES: PD-1/PD-L1 biochemical protein-protein interaction assay (ALPHA)
- CONDITION_LABEL: 0.3 nM His tagged PD-L1, 2.5 nM biotinylated Fc-PD-1, 60 minutes at 25° C., read-out: IC50 PD-L1-PD1
Hi there, I'd appreciate the recorded pIC50 for every entry that follows.
Numbers only, as −log10 of the molar value.

Examples with answers:
COMPOUND	TARGET_OF_ASSAY	pIC50
COc1nc(-c2cccc(-c3cccc(-c4cnc(CN5CC6(CCC(=O)N6)C5)c(OC)n4)c3Cl)c2Cl)ccc1C1=NCCN1 [compound 115]	PD-1/PD-L1 (Homo sapiens (Human))	9.94
COc1nc(-c2cccc(-c3cccc(-c4cnc(CNC5CCN(C(C)=O)C5)c(OC)n4)c3Cl)c2Cl)cnc1CNC[C@H]1CCC(=O)N1 (stereo partly drawn) [compound 194]	PD-1/PD-L1 (Homo sapiens (Human))	9.83
COc1nc(-c2cccc(-c3cccc(-c4cnc(CNC[C@@H]5C[C@H]5c5cccnc5)c(OC)n4)c3Cl)c2Cl)cnc1CNC[C@@H]1CCC(=O)N1 [compound 219]	PD-1/PD-L1 (Homo sapiens (Human))	9.72
COc1nc(-c2cccc(-c3cccc(-c4cnc(CNC[C@@H]5CCC(=O)N5)c(OC)n4)c3Cl)c2Cl)cnc1CNCC(O)CN1CCCC1 (stereo partly drawn) [compound 413]	PD-1/PD-L1 (Homo sapiens (Human))	9.79
COc1nc(-c2cccc(-c3cccc(-c4cnc(CNCc5cn[nH]c5)c(OC)n4)c3Cl)c2Cl)cnc1CNCc1cn[nH]c1 [compound 456]	PD-1/PD-L1 (Homo sapiens (Human))	9.73

The recorded pIC50 for entry COc1nc(-c2cccc(-c3cccc(-c4cnc(CNC[C@@H]5CCC(=O)N5)c(OC)n4)c3Cl)c2Cl)cnc1CNCC1CS(=O)(=O)C1 [compound 311] equals 9.62

* * *

- TARGET_OF_ASSAY: PD-1/PD-L1 (Homo sapiens (Human), UniProt Q9NZQ7)
- MEASUREMENT_NOTES: PD-1/PD-L1 biochemical protein-protein interaction assay (ALPHA)
- CONDITION_LABEL: 0.3 nM His tagged PD-L1, 2.5 nM biotinylated Fc-PD-1, 60 minutes at 25° C., read-out: IC50 PD-L1-PD1
Would you mind telling me the reported log10 IC50 of each entry?
All values: log10 IC50 [nM].

COMPOUND	METRIC	NUMERIC_VALUE
COc1nc(-c2cccc(-c3cccc(-c4cnc(CNC[C@@H](C)O)c(OC)n4)c3Cl)c2Cl)cnc1CNC[C@@H]1CCC(=O)N1	log10 IC50	-0.50
COc1nc(-c2cccc(-c3cccc(-c4cnc(CN5C6COCC5C6)c(OC)n4)c3Cl)c2Cl)cnc1CN1C2COCC1C2	log10 IC50	-0.66
COc1nc(-c2cccc(-c3cccc(-c4cnc(CN5CCC(C(N)=O)CC5)c(OC)n4)c3Cl)c2Cl)cnc1CNC[C@@H]1CCC(=O)N1	log10 IC50	-1.08
COc1nc(-c2cccc(-c3cccc(-c4cnc([C@H](C)N)c(OC)n4)c3Cl)c2Cl)cnc1CNC[C@@H]1CCC(=O)N1	log10 IC50	-0.77
COc1nc(-c2cccc(-c3cccc(-c4cnc(CN5CC[C@@H](NC(C)=O)C5)c(OC)n4)c3Cl)c2Cl)cnc1CNC[C@H]1CCC(=O)N1	log10 IC50	-0.92
COc1nc(-c2cccc(-c3cccc(-c4cnc(CN5C[C@@H](O)[C@@H](O)C5)c(OC)n4)c3Cl)c2Cl)cnc1CN1C[C@@H](O)[C@@H](O)C1	log10 IC50	-0.56
COc1nc(-c2cccc(-c3cccc(-c4cnc(CN5CC[C@@H](C(=O)O)C5)c(OC)n4)c3Cl)c2Cl)ccc1CNC[C@@H]1CCC(=O)N1	log10 IC50	-1.05
COc1nc(-c2cccc(-c3cccc(-c4cnc(CNC[C@@H]5CNC(=O)C5)c(OC)n4)c3Cl)c2Cl)cnc1CNC[C@@H]1CNC(=O)C1	log10 IC50	-1.19

Would you mind giving log10 IC50 for every compound in the list below?
1. COc1nc(-c2cccc(-c3cccc(-c4cnc(CN[C@@H]5CCC(C(N)=O)C5)c(OC)n4)c3Cl)c2Cl)cnc1CNC[C@@H]1CCC(=O)N1 (stereo partly drawn)
2. COc1nc(-c2cccc(-c3cccc(-c4cnc(CN[C@@H]5C[C@@H]5C(F)F)c(OC)n4)c3Cl)c2Cl)cnc1CNC[C@@H]1CCC(=O)N1
3. CNC(=O)C1CCN(Cc2ncc(-c3cccc(-c4cccc(-c5cnc(CNC[C@@H]6CCC(=O)N6)c(OC)n5)c4Cl)c3Cl)nc2OC)C1 (stereo partly drawn)
4. COc1nc(-c2cccc(-c3cccc(-c4cnc(CN5CC(O)(CO)C5)c(OC)n4)c3Cl)c2Cl)cnc1CNC[C@@H]1CCC(=O)N1

1: -1.03; 2: 0.01; 3: -1.18; 4: -1.05

* * *

- TARGET_OF_ASSAY: PD-1/PD-L1 (Homo sapiens (Human), UniProt Q9NZQ7)
- MEASUREMENT_NOTES: PD-1/PD-L1 biochemical protein-protein interaction assay (ALPHA)
- CONDITION_LABEL: 0.3 nM His tagged PD-L1, 2.5 nM biotinylated Fc-PD-1, 60 minutes at 25° C., read-out: IC50 PD-L1-PD1
METRIC: IC50 (nM)
Answers are plain numbers, in nM.

Check out these entries, answers already filled in.
COMPOUND	METRIC	NUMERIC_VALUE
COc1nc(-c2cccc(-c3cccc(-c4ccc(CN5CC6(CCC(=O)N6)C5)c(C#N)c4)c3Cl)c2Cl)cnc1CNC[C@@H]1CCC(=O)N1 [compound 151]	IC50	0.684
COc1nc(-c2cccc(-c3cccc(-c4cnc(CN5CC(O)C5)c(OC)n4)c3Cl)c2Cl)cnc1CNC[C@@H]1CCC(=O)N1 [compound 379]	IC50	0.155
COc1nc(-c2cccc(-c3cccc(-c4cc(C)c(CN5CC(C(=O)O)C6(CCOC6)C5)c(OC)n4)c3Cl)c2Cl)cnc1CNC[C@@H]1CCC(=O)N1 (stereo partly drawn) [compound 654]	IC50	0.071
COc1nc(-c2cccc(-c3cccc(-c4cnc(CN5CCC(c6cn[nH]c6)C5)c(OC)n4)c3Cl)c2Cl)cnc1CNC[C@@H]1CCC(=O)N1 (stereo partly drawn) [compound 441]	IC50	0.064

Give one value of IC50 per listed compound.
1. COc1nc(-c2cccc(-c3cccc(-c4cnc(CN5CCC[C@@H]6C(=O)NC[C@@H]65)c(OC)n4)c3Cl)c2Cl)cnc1CNC[C@@H]1CCC(=O)N1 [compound 542]
2. COc1nc(-c2cccc(-c3cccc(-c4cnc(CN5CC(CO)C5)c(OC)n4)c3Cl)c2Cl)cnc1CN1CC(CO)C1 [compound 145]
3. COc1nc(-c2cccc(-c3cccc(-c4cnc(CNC[C@@H]5CCC(=O)N5)c(OC)n4)c3Cl)c2Cl)cnc1CNCc1nc[nH]n1 [compound 28]
4. COc1nc(-c2cccc(-c3cccc(-c4cnc(CN(C)C)c(OC)n4)c3Cl)c2Cl)cnc1CNC[C@@H]1CCC(=O)N1 [compound 46]
5. COc1nc(-c2cccc(-c3cccc(-c4cnc(CNC[C@H]5CCC(=O)N5)c(OC)n4)c3Cl)c2Cl)cnc1CNCCc1ncc[nH]1 [compound 201]

0.392
0.1
0.436
0.081
0.28

List IC50 for every entry below, keeping the order given.
1. COc1nc(-c2cccc(-c3cccc(-c4cnc(CNC[C@@H]5CCC(=O)N5)c(OC)n4)c3Cl)c2Cl)cnc1CNCCc1cnccn1 [compound 521]
2. COc1nc(-c2cccc(-c3cccc(-c4cnc(CN5CC[C@H](O)C5)c(OC)n4)c3Cl)c2Cl)cnc1CN1CC[C@H](O)C1 [compound 132]
3. COc1nc(-c2cccc(-c3cccc(-c4cnc(CN5CC6(CNC(=O)C6)C5)c(OC)n4)c3Cl)c2Cl)ccc1CNC[C@@H]1CCC(=O)N1 [compound 633]
4. COc1nc(-c2cccc(-c3cccc(-c4cnc(CN)c(OC)n4)c3Cl)c2Cl)ccc1CN [compound 436]

[0.071, 0.753, 0.064, 5.46]

Hi! Can you tell me IC50 for each of these compounds?
1. CN(C)c1nc(-c2cccc(-c3cccc(-c4cnc(CN5CC6(CCC(=O)N6)C5)c(N(C)C)n4)c3Cl)c2Cl)cnc1CN1CC2(CCC(=O)N2)C1 [compound 103]
2. CCn1nc(CN2CC3(C2)CN(C(C)=O)C3)c2ncc(-c3cccc(-c4cccc(-c5cnc(CN6CC7(C6)CN(C(C)=O)C7)c(OC)n5)c4Cl)c3Cl)nc21 [compound 490]
3. COc1nc(-c2cccc(-c3cccc(-c4cnc(CN5CC(NS(N)(=O)=O)C5)c(OC)n4)c3Cl)c2Cl)cnc1CN1CC(NS(N)(=O)=O)C1 [compound 571]
4. COc1nc(-c2cccc(-c3cccc(-c4cnc(CNC[C@@H]5CCC(=O)N5)c(OC)n4)c3Cl)c2Cl)cnc1CNCc1ccnn1C [compound 34]

1. 0.071
2. 0.565
3. 0.064
4. 0.231

Parameters: items (list). Returns: IC50 for each item.
1. COc1nc(-c2cccc(-c3cccc(-c4cnc(CN[C@@H]5CCN(S(C)(=O)=O)C5)c(OC)n4)c3Cl)c2Cl)cnc1CN[C@@H]1CCN(S(C)(=O)=O)C1 [compound 321]
2. COc1nc(-c2cccc(-c3cccc(-c4cnc(CN[C@H]5CCC[C@H]5O)c(OC)n4)c3Cl)c2Cl)ccc1CNC[C@@H]1CNC(=O)C1 [compound 640]
3. COc1nc(-c2cccc(-c3cccc(-c4cnc(CN5CC(C)(C#N)C5)c(OC)n4)c3Cl)c2Cl)cnc1CNC[C@@H]1CCC(=O)N1 [compound 9]
4. COc1nc(-c2cccc(-c3cccc(-c4cnc(CNC5CN(C(C)=O)C5)c(OC)n4)c3Cl)c2Cl)cnc1CNC[C@@H]1CCC(=O)N1 [compound 191]
5. COc1nc(-c2cccc(-c3cccc(-c4cnc(CNCc5cnn(CCO)c5)c(OC)n4)c3Cl)c2Cl)cnc1CNCc1cnn(CCO)c1 [compound 455]
6. CNc1nc(-c2cccc(-c3cccc(-c4cnc(CN5CC6(C5)CN(C(C)=O)C6)c(NC)n4)c3Cl)c2Cl)cnc1CN1CC2(C1)CN(C(C)=O)C2 [compound 76]
7. COc1nc(-c2cccc(-c3cccc(-c4cnc(CNCC5(S(C)(=O)=O)CC5)c(OC)n4)c3Cl)c2Cl)cnc1CNC[C@@H]1CCC(=O)N1 [compound 218]

0.46
0.167
0.49
0.143
0.145
0.09
0.14
